test: Clearance in male C57BL/6 mouse at 2 mg/kg, iv measured by LC-MS/MS analysis; type: ADME, organism-based; conditions: in vivo
measured attribute: clearance

                           smiles_structure  data_value
0  O=C(O)c1ccc2c(c1)Oc1ccc(OCc3c(-c4c(Cl)cccc4Cl)noc3C3CC3)nc1C1(CC1)C2  9.6 L/h/kg

* * *

Readings of pEC50 for the listed molecules
molecular target: UniProt Q96RI1; test: Agonist activity at FXR-LBD (unknown origin) assessed as induction of coactivator SRC-1 peptide recruitment measured by TR-FRET assay
pEC50: −log10 of the molar value.
measured attribute: pEC50

                           smiles_structure   tested_system  data_value
0  O=C(O)c1ccc2c(c1)Oc1ccc(OCc3c(-c4c(Cl)cccc4Cl)noc3C3CC3)cc1CC2  UniProt Q96RI1        6.08
1  O=C(O)c1ccc2c(c1)Oc1ccc(OCc3c(-c4c(Cl)cccc4Cl)noc3C3CC3)nc1C=C2F  UniProt Q96RI1        7.76
2  CC1=Cc2nc(OCc3c(-c4c(Cl)cccc4Cl)noc3C3CC3)ccc2Oc2cc(C(=O)O)ccc21  UniProt Q96RI1        8.22
3  O=C(O)c1ccc2c(c1)Oc1ccc(OCc3c(-c4c(Cl)cccc4Cl)noc3C3CC3)nc1CC2  UniProt Q96RI1        8.45
4  O=C(O)c1ccc2c(c1)Oc1ncc(OCc3c(-c4c(Cl)cccc4Cl)noc3C3CC3)cc1CC2  UniProt Q96RI1        7.43
5  O=C(O)c1ccc2c(c1)Oc1ccc(OCc3c(-c4c(Cl)cccc4Cl)noc3C3CC3)nc1CO2  UniProt Q96RI1        7.84
6  O=C(O)c1ccc2c(c1)Oc1ccc(OCc3c(-c4c(Cl)cccc4Cl)noc3C3CC3)nc1C1(CC1)C2  UniProt Q96RI1        8.86
7  O=C(O)c1ccc2c(c1)Oc1cnc(OCc3c(-c4c(Cl)cccc4Cl)noc3C3CC3)cc1CC2  UniProt Q96RI1        7.93

* * *

assay: Oral bioavailability in male Beagle dog at 5 mg/kg measured by LC-MS/MS analysis; type: ADME, organism-based, Canis lupus familiaris; conditions: in vivo
measured attribute: bioavailability (%)

In [3]: df
Out[3]:
                           smiles_structure  measured_attribute  data_value
0  O=C(O)c1ccc2c(c1)Oc1ccc(OCc3c(-c4c(Cl)cccc4Cl)noc3C3CC3)nc1C1(CC1)C2     bioavailability        42.3

* * *

assay: Toxicity in po dosed Sprague-Dawley rat assessed as maximum tolerated dose; format: organism-based; conditions: in vivo
measured attribute: MTD (mg/kg)

In [3]: df
Out[3]:
                           smiles_structure  data_value
0  O=C(O)c1ccc2c(c1)Oc1ccc(OCc3c(-c4c(Cl)cccc4Cl)noc3C3CC3)nc1C1(CC1)C2        2000

* * *

Target: Peroxisome proliferator-activated receptor gamma (Homo sapiens)
Sequence (P37231 whole entry): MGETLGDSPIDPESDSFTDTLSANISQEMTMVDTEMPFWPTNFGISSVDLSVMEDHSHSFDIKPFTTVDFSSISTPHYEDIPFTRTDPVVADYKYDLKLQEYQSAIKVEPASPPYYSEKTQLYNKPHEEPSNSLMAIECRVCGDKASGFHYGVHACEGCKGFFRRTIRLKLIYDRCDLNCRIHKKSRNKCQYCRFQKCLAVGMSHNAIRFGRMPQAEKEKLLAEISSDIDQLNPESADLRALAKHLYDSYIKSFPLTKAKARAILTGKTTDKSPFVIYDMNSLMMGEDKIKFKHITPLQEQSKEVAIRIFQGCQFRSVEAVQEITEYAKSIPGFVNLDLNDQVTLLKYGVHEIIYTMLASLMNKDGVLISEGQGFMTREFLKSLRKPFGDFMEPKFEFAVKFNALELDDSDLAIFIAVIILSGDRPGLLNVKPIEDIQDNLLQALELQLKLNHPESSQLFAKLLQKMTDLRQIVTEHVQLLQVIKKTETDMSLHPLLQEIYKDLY
Assay: Agonist activity at PPARgamma (unknown origin)
pEC50: −log10 of the molar value.
measured attribute: pEC50

>>> df
                           smiles_structure                             tested_system  measured_attribute  data_value
0  O=C(O)c1ccc2c(c1)Oc1ccc(OCc3c(-c4c(Cl)cccc4Cl)noc3C3CC3)nc1C1(CC1)C2  Peroxisome proliferator-activated receptor gamma (Homo sapiens)               pEC50      < 5.00

* * *

experiment: Half-life in male Sprague-Dawley rat at 5 mg/kg, po measured by LC-MS/MS analysis; assay type: ADME, organism-based; settings: in vivo
measured attribute: half-life (h)

In [3]: df
Out[3]:
                                   compound  data_value
0  CC1Cc2ccc(C(=O)O)cc2Oc2ccc(OCc3c(-c4c(Cl)cccc4Cl)noc3C3CC3)nc21 (centres undefined)        0.93
1  O=C(O)c1ccc2c(c1)Oc1ccc(OCc3c(-c4c(Cl)cccc4Cl)noc3C3CC3)nc1CC2        0.74
2  O=C(O)c1ccc2c(c1)Oc1ccc(OCc3c(-c4c(Cl)cccc4Cl)noc3C3CC3)nc1C1(CC1)C2         1.6
3  CC1=Cc2ccc(C(=O)O)cc2Oc2ccc(OCc3c(-c4c(Cl)cccc4Cl)noc3C3CC3)nc21         1.2

* * *

assay: Oral bioavailability in male C57BL/6 mouse at 5 mg/kg measured by LC-MS/MS analysis; assay type: ADME, organism-based; conditions: in vivo
measured attribute: bioavailability (%)

>>> print(df.to_string())
                           smiles_structure  unit_symbol  data_value
0  O=C(O)c1ccc2c(c1)Oc1ccc(OCc3c(-c4c(Cl)cccc4Cl)noc3C3CC3)nc1C1(CC1)C2            %        82.5

* * *

Biological target: Bile acid receptor (Homo sapiens, UniProt Q96RI1)
Sequence (Q96RI1 whole entry): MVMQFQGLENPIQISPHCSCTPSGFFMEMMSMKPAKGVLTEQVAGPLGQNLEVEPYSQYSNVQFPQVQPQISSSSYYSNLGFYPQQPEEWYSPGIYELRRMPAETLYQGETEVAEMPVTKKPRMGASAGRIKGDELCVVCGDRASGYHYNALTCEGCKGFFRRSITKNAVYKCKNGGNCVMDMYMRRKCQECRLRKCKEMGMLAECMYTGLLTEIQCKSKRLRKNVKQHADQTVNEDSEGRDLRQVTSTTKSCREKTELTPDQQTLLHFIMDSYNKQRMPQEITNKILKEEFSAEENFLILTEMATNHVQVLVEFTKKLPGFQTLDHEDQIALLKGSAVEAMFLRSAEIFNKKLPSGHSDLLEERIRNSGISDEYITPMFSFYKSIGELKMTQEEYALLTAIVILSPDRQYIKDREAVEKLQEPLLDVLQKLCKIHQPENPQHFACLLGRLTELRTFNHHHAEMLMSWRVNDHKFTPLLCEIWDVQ
Assay: Agonist activity at human FXR expressed in HEK293T cells by luciferase reporter assay
Type: cell-based
Readings of EC50 for the listed compounds
measured attribute: EC50 (nM)

                           smiles_structure  unit_symbol  data_value
0  O=C(O)c1ccc2c(c1)Oc1ccc(OCc3c(-c4c(Cl)cccc4Cl)noc3C3CC3)nc1C1(CC1)C2           nM        1.55
1  O=C(O)c1cc(F)c2c(c1)Oc1ccc(OCc3c(-c4c(Cl)cccc4Cl)noc3C3CC3)nc1CC2           nM         372
2  O=C(O)c1ccc2c(c1)Oc1ccc(OCc3c(-c4c(Cl)cccc4Cl)noc3C3CC3)nc1CO2           nM         114
3  O=C(O)c1ccc2c(c1)Oc1cnc(OCc3c(-c4c(Cl)cccc4Cl)noc3C3CC3)cc1CC2           nM         161

* * *

Target: G-protein coupled bile acid receptor 1 (Homo sapiens, UniProt Q8TDU6)
Sequence (Q8TDU6 whole entry): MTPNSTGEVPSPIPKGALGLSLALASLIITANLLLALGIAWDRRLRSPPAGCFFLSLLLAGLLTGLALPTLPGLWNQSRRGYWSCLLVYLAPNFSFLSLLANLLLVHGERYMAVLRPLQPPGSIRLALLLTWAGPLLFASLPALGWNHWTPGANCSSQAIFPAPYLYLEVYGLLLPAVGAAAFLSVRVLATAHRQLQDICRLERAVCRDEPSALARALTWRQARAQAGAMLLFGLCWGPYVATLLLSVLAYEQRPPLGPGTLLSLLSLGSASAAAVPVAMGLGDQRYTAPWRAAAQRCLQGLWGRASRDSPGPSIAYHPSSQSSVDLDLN
Test: Agonist activity in human GPBAR1 assessed as increase in intracellular cAMP level
pEC50: −log10 of the molar value.
measured attribute: pEC50

>>> df
                           smiles_structure  measured_attribute  data_value
0  O=C(O)c1ccc2c(c1)Oc1ccc(OCc3c(-c4c(Cl)cccc4Cl)noc3C3CC3)nc1C1(CC1)C2               pEC50      < 5.00
